tested on: CAMKK2; settings: concentration: 1 μM, replicates: in singlicate; n = 1;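 note: KINOMEscan kinase panel screen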
OBSERVABLE: %Inh (%)
Give the number; % is assumed, so skip it.

COMPOUND	EXPERIMENTAL_SYSTEM	OUTPUT_UNIT	%Inh
COc1cc(Nc2ccnc3cc(-c4ccncc4)ccc23)cc(OC)c1OC.Cl [GW494610]	CAMKK2	%	0

Req: Name the reported %Inh value associated with the compound O=C(Nc1n[nH]c2nc(-c3cccc(O)c3)ccc12)C1CC1 [SB-711805]
Resp: 0

Req: Name the reported %Inh value associated with the compound COc1ccc(NC(=O)c2ccoc2)cc1-c1ccc(C(=O)NCC2CC2)cc1 [GW810437]
Resp: 30
